# Tested on: PmTbr T-box DNA-binding domain (GST fusion);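 further: 200 nM protein in PBS on universal arrays averaged over duplicate arrays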
# Sequence: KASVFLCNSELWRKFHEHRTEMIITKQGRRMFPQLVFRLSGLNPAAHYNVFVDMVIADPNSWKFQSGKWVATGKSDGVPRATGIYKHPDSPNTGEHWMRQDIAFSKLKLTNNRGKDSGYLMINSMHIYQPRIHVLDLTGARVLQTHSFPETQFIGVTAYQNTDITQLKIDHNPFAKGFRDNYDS
# Experiment notes: PBM E-score of 8-mer (E-score (dimensionless, -0.5 to 0.5)); higher = stronger binding preference
# Test context: the construct has about 5 more residues each side
Whole data set: some 33,000 sequences, median “E-score (dimensionless, -0.5 to 0.5)” near -0.049, cut for the highest 2% near 0.37. What follows is part of a selection rich in the highest values, with near analogues and random picks from the rest.
Quantity: PBM E-score of 8-mer

| Biopolymer sequence | Result |
| --- | --- |
| TAAGGTGA | 0.358 |
| GCGCGAAA | 0.44 |
| CGTGTCCC | -0.0561 |
| CAAGGTAA | 0.00125 |

(Q) Tell me reported PBM E-score of 8-mer for ACCCCCTC , tested with PmTbr T-box DNA-binding domain (GST fusion).
(A) -0.00817

(Q) # get_value(readout= PBM E-score of 8-mer, system= PmTbr T-box DNA-binding domain (GST fusion)) for GCGCGATA;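 further: 200 nM protein in PBS on universal arrays averaged over duplicate arrays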
(A) 0.337

* * *

# System: PmTbr T-box DNA-binding domain (GST fusion);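 further: 200 nM protein in PBS on universal arrays averaged over duplicate arrays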
# Sequence: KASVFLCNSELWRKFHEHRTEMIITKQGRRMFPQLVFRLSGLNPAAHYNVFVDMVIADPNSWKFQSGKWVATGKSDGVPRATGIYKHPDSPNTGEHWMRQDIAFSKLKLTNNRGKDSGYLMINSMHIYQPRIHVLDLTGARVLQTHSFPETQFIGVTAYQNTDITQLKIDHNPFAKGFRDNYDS
# Experiment notes: PBM E-score of 8-mer (E-score (dimensionless, -0.5 to 0.5)); Tbr is Tbrain of the sea star Patiria miniata (Pm) or the sea urchin Strongylocentrotus purpuratus (Sp); higher = stronger binding preference
# Test context: target sequence: T-box / the construct has about 5 more residues each side
The full ranking holds about 33,000 sequences; the median of “E-score (dimensionless, -0.5 to 0.5)” is about -0.049, and the highest 2% start at about 0.37. This is one part of a sample in which the highest values are shown more often than they occur.
Binary classification by PBM E-score of 8-mer, with 0.05 as an inclusive lower bound for TRUE; all other cases are FALSE.

Please review the entries below; each comes with its answer.
| Biopolymer sequence | Assigned category |
| --- | --- |
| AACCTGCG | TRUE |
| AATCGCGT | TRUE |
| CGCACCGC | TRUE |
| CACCTGCG | TRUE |
| GCCCAACA | TRUE |

(Q) // inclusive: PBM E-score of 8-mer at least 0.05? input: AACAGGTA
(A) TRUE

(Q) Assess whether reported PBM E-score of 8-mer for CAGTCCTC sits at 0.05 or higher.
(A) FALSE

(Q) Please indicate if the recorded PBM E-score of 8-mer for ATGCTAAC meets or exceeds 0.05.
(A) TRUE

(Q) Please check the record AAGAATGT and state if its PBM E-score of 8-mer is at or above 0.05.
(A) FALSE

(Q) Please check the record TCGTTTCA and state if its PBM E-score of 8-mer is at or above 0.05.
(A) TRUE
